# Read-out: Cytochrome P450 (CYP2B6), CYP2B6 (gene 1555)
# experimentalDetails: LTEA_HepaRG_CYP2B6: Life Technologies and Expression Analysis (LTEA) Assay for Cytochrome P450 (CYP2B6) using HepaRG (AID 2283481)
# measurementSetup: mRNA level, 48 h; actives raise or lower the signal
Activity calls are given as the source filed them. Rule for the calls: active = hit-call score of the fitted dose curve at least 0.9, where 1 is the maximum; inactive = score below 0.9.
quantityKind: AC50

Inquiry: Any idea what its AC50 is? The molecule is CNC(=O)Oc1cccc2c1OC(C)(C)O2
Reply text: inactive

Inquiry: Any idea what its AC50 is? The molecule is CC(=NC#N)N(C)Cc1ccc(Cl)nc1
Reply text: 50 µM (active)

Inquiry: Any idea what its AC50 is? The molecule is CC1=NNC(=O)N(/N=C/c2cccnc2)C1
Reply text: inactive

Inquiry: Any idea what its AC50 is? The molecule is CCCOCC(=Nc1ccc(Cl)cc1C(F)(F)F)n1ccnc1
Reply text: 30.4 µM (active)

Inquiry: Any idea what its AC50 is? The molecule is CCOP(=S)(OCC)Oc1ccc([N+](=O)[O-])cc1
Reply text: 0.636 µM (active)

Further cases:
Inquiry: Any idea what its AC50 is? The molecule is CC(C)N(C(=O)SCC(Cl)=C(Cl)Cl)C(C)C
Reply text: inactive

Inquiry: Any idea what its AC50 is? The molecule is CCOP(=O)(OCC)Oc1cc(C)nc(C(C)C)n1
Reply text: inactive

Inquiry: Any idea what its AC50 is? The molecule is S=C1NCCN1
Reply text: 10.3 µM (active)

Inquiry: Any idea what its AC50 is? The molecule is N#CSCSC#N
Reply text: 92.3 µM (active)

Inquiry: Any idea what its AC50 is? The molecule is CCCSP(=O)(OCC)SCCC
Reply text: 2.48 µM (active)

Inquiry: Any idea what its AC50 is? The molecule is CCOP(=S)(OCC)OC(Cl)C(Cl)(Cl)Cl (stereo unspecified)
Reply text: 24 µM (active)

Inquiry: Any idea what its AC50 is? The molecule is CCCCOC(=O)c1ccccc1C(=O)O
Reply text: 10.2 µM (active)

Inquiry: Any idea what its AC50 is? The molecule is CCCCN(CC)c1c([N+](=O)[O-])cc(C(F)(F)F)cc1[N+](=O)[O-]
Reply text: 32 µM (active)

Inquiry: Any idea what its AC50 is? The molecule is Nc1nc(N)nc(NC2CC2)n1
Reply text: inactive

Inquiry: Any idea what its AC50 is? The molecule is COc1cc(OC)nc(Sc2cccc(Cl)c2C(=O)O)n1
Reply text: inactive

Inquiry: Any idea what its AC50 is? The molecule is CCOP(=S)(OCC)Oc1cc(C)nc(C(C)C)n1
Reply text: 2.5 µM (active)

* * *

# studySystem: human Thyroid Receptor alpha (THRa1), THRA (gene 7067)
# experimentalDetails: ATG_THRa1_TRANS: Attagene TRANS-FACTORIAL HepG2 Assay for human Thyroid Receptor alpha (THRa1) (AID 2283014)
Results filed as inconclusive are left out. Calls of active or inactive are those of the source. How the source made its calls: active means hit-call score of the fitted dose curve at least 0.9, where 1 is the maximum; inconclusive means response in the unintended direction; inactive means score below 0.9.
The categories you may choose from are t (active), f (inactive)

Recorded results for 6 compounds are shown here.
Inquiry: Hey, what did the test say about N#CSCSC#N ?
Reply text: f

Inquiry: Hey, what did the test say about COc1ccc(C(=CC(=O)N2CCOCC2)c2ccc(Cl)cc2)cc1OC ?
Reply text: f

Inquiry: Hey, what did the test say about CNc1cnn(-c2cccc(C(F)(F)F)c2)c(=O)c1Cl ?
Reply text: f

Inquiry: Hey, what did the test say about CON=C(C(=O)OC)c1ccccc1CON=C(C)c1cccc(C(F)(F)F)c1 ?
Reply text: f

Inquiry: Hey, what did the test say about CC(C)=CC1C(C(=O)OCN2C(=O)C3=C(CCCC3)C2=O)C1(C)C (stereo unspecified) ?
Reply text: f

Inquiry: Hey, what did the test say about Cc1cc(C2CC2)nc(Nc2ccccc2)n1 ?
Reply text: t

Switching to the query record.
Inquiry: Hey, what did the test say about CCOP(=S)(OCC)SCCSCC ?
Reply text: f
